Entries and their inhibition at 1 µM values follow.
Target: panel of 255 wild-type kinases (Homo sapiens)
Experiment: Kinase panel profiling at 1 µmol/L (MSA or IMAP), percentage inhibition
Format: biochemical
Conditions: kinase TSSK1; 1 µmol/L single concentration; read-out: %-inhibition at 1 µmol/L, TSSK1
EXPERIMENTAL_READOUT: inhibition at 1 µM (%)

* C=CC(=O)N1CCC([C@@H]2CCNc3c(C(N)=O)c(-c4ccc(Oc5ccccc5)cc4)nn32)CC1 [zanubrutinib] | 2.13
* O=C(Nc1cnn2ccc(N3CCC[C@@H]3c3cc(F)ccc3F)nc12)N1CC[C@H](O)C1 [larotrectinib] | 4
* CCN1C(=O)N(c2c(F)c(OC)cc(OC)c2F)Cc2cnc3[nH]c(CN4CCOCC4)cc3c21 [pemigatinib] | 8
* Cc1cc(Nc2ncnc3ccc(NC4=NC(C)(C)CO4)cc23)ccc1Oc1ccn2ncnc2c1 [tucatinib] | 2.58
* CCc1nc(C(N)=O)c(Nc2ccc(N3CCC(N4CCN(C)CC4)CC3)c(OC)c2)nc1NC1CCOCC1 [gilteritinib] | 95
* Cc1nc(NC(=O)N2CCC[C@H]2C(N)=O)sc1-c1ccnc(C(C)(C)C(F)(F)F)c1 [alpelisib] | -5
* C[C@H](Nc1ncnc2nc[nH]c12)c1cc2cccc(Cl)c2c(=O)n1-c1ccccc1 [duvelisib] | -4
* CCN1CCN(c2ccc(Nc3cc(N(C)C(=O)Nc4c(Cl)c(OC)cc(OC)c4Cl)ncn3)cc2)CC1 [infigratinib] | 3.24

----------
Biological target: panel of 255 wild-type kinases (Homo sapiens, UniProt O15111)
Sequence (O15111 1-745): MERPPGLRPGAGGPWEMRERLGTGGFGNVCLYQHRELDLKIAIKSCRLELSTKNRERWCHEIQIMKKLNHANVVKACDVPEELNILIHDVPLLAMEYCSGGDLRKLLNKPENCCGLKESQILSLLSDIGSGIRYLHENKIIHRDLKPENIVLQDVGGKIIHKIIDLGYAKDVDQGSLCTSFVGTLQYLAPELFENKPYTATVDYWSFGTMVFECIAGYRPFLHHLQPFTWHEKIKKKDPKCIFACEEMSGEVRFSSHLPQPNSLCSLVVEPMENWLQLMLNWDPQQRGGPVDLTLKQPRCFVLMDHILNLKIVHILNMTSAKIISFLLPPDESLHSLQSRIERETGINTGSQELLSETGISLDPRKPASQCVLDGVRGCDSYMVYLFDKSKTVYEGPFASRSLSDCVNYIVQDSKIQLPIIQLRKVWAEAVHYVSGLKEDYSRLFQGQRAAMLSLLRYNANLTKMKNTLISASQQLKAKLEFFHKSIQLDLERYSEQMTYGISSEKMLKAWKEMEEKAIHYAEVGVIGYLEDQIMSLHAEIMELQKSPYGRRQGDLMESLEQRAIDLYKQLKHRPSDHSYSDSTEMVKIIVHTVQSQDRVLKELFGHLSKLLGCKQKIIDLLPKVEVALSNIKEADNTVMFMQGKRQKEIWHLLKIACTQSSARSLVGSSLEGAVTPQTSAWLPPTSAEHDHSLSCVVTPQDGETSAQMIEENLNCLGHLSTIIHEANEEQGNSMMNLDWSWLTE
Assay: Kinase panel profiling at 1 µmol/L (MSA or IMAP), percentage inhibition
Assay type: biochemical
Details: kinase IKKα; 1 µmol/L single concentration; read-out: %-inhibition at 1 µmol/L, IKKα
EXPERIMENTAL_READOUT: inhibition at 1 µM (%)

• Cn1cnc2c(F)c(Nc3ccc(Br)cc3Cl)c(C(=O)NOCCO)cc21 = -0.157
• COc1cc2ncnc(Nc3ccc(F)c(Cl)c3)c2cc1NC(=O)/C=C/CN1CCCCC1 = 10
• CCN1C(=O)N(c2c(F)c(OC)cc(OC)c2F)Cc2cnc3[nH]c(CN4CCOCC4)cc3c21 = -6
• O=C(Nc1cnn2ccc(N3CCC[C@@H]3c3cc(F)ccc3F)nc12)N1CC[C@H](O)C1 = 2.45
